Origin of values: PubChem BioAssay (NCATS)

# Protocol summary: Quantitative High-Throughput drug screen in 47 multiple myeloma cell lines against the NCATS MIPE library collection: Karpas620_DSMZ cell viability assay (AID 1918959); note: nearly all actives have a fitted effect of over 30% in size
# Condition context: Karpas620 myeloma viability, CellTiter-Glo ATP luminescence, 48 h; series mostly up to 45.8 µM
Inconclusive results are not listed. Activity calls are given as the source filed them. Calls come from the whole dose curve; as a rule, active = well fitted cell-killing curve with a large enough effect; inconclusive = small, poorly fitted or top-dose-only effect, or effect the other way; inactive = no such curve, though single readings can be large or run the other way.
Thanks in advance; please answer with one of these: active, inactive

Exercise: Fill in: this test's call for CC1CCN(c2cc(N3CCN(C)CC3)ccc2NC(=O)c2cc(C#N)c[nH]2)CC1 is ___
Key: inactive

Exercise: Fill in: this test's call for CC(C)c1c(C(=O)Nc2ccccc2)c(-c2ccccc2)c(-c2ccc(F)cc2)n1CC[C@H](O)C[C@@H](O)CC(=O)O is ___
Key: inactive

Exercise: Fill in: this test's call for Cc1cc2c(cc1C1(c3ccc(C(=O)O)cn3)CC1)C(C)(C)CCC2(C)C is ___
Key: inactive

Exercise: Fill in: this test's call for CN1CC(=O)N2C(Cc3c([nH]c4ccccc34)[C@H]2c2ccc3c(c2)OCO3)C1=O (some centres undefined) is ___
Key: inactive

Exercise: Fill in: this test's call for Cc1cc(CS(=O)(=O)c2ccccc2)cc(OCc2ccc(CN3CCC[C@H]3CO)cc2)c1 is ___
Key: active

Exercise: Fill in: this test's call for Cc1cnc(-c2cc(N3CCN(C(=O)CCS(C)(=O)=O)CC3)ncc2Cl)c(C)c1 is ___
Key: inactive

Exercise: Fill in: this test's call for O=c1[nH]c(=O)n([C@H]2C[C@@H](O)[C@@H](CO)O2)cc1C(F)(F)F is ___
Key: inactive

Exercise: Fill in: this test's call for O=C(Nc1ncc(SCCN2CCCC2)s1)[C@]1(c2ccc(S(=O)(=O)C3CC3)cc2)C[C@@H]1C1CCCCC1 is ___
Key: active

Exercise: Fill in: this test's call for CCC(=C(CC)c1ccc(O)cc1)c1ccc(O)cc1 is ___
Key: active
